assay: total protein half-life in vivo (active degradation + dilution); higher = more stable protein; conditions: wild type E. coli NCM3722; growth: N-lim chemostat; doubling time 12 h
Listed next: entries and their corresponding total protein half-life in vivo.
Numbers only; they are read as h.

Look over these answered cases.
Query sequence	Unit name	Value measured
MSIRIIPQDELGSSEKRTADMIPPLLFPRLKNLYNRRAERLRELAENNPLGDYLRFAALIAHAQEVVLYDHPLEMDLTARIKEASAQGKPPLDIHVLPRDKHWQKLLMALIAELKPEMSGPALAVIENLEKASTQELEDMASALFASDFSSVSSDKAPFIWAALSLYWAQMANLIPGKARAEYGEQRQYCPVCGSMPVSSMVQIGTTQGLRYLHCNLCETEWHVVRVKCSNCEQSGKLHYWSLDDEQAAIKAESCDDCDTYLKILYQEKDPKIEAVADDLASLVLDARMEQEGYARSSINPFLFPGEGE	h	4.72
MRHIFQRLLPRRLWLAGLPCLALLGCVQNHNKPAIDTPAEEKIPVYQLADYLSTECSDIWALQGKSTETNPLYWLRAMDCADRLMPAQSRQQARQYDDGSWQNTFKQGILLADAKITPYERRQLVARIEALSTEIPAQVRPLYQLWRDGQALQLQLAEERQRYSKLQQSSDSELDTLRQQHHVLQQQLELTTRKLENLTDIERQLSTRKPAGNFSPDTPHESEKPAPSTHEVTPDEP [P0AD44]	h	14

Attention now shifts to the item below.
Give a short answer stating reported total protein half-life in vivo for MIFLMTKDSFLLQGFWQLKDNHEMIKINSLSEIKKVGNKPFKVIIDTYHNHILDEEAIKFLEKLDAERIIVLAPYHISKLKAKAPIYFVSRKESIKNLLEITYGKHLPHKNSQLCFSHNQFKIMQLILKNKNESNITSTLNISQQTLKIQKFNIMYKLKLRRMSDIVTLGITSYF .
3.82

Values were extracted from the supplement of paper PMC11246515.
